molecular target: PBP1, PBP2 and PBP3 (Neisseria gonorrhoeae, UniProt Q5FAB9); format: binding, Neisseria gonorrhoeae ATCC 19424; details: read-out: min. IC50 (minimum observed IC50 value); strain ATCC 19424
Reported property: pIC50
# reply with the number alone; pIC50 is -log10 of concentration in mol/L

Asked: Supply measured pIC50 of NC(=O)[C@@H]1CC[C@@H]2CN1C(=O)N2OS(=O)(=O)O [AVI, avibactam] in your reply.
Given back: 5.06

Asked: Indicate its recorded pIC50; the molecule in question is O=C(NC1CCNCC1)[C@@H]1CC[C@@H]2CN1C(=O)N2OS(=O)(=O)O [REL, relebactam]
Given back: 5.44

###

Give IC50 for every item shown.
Target: UniProt:Q5FAB9
Sequence (Q5FAB9 22-469): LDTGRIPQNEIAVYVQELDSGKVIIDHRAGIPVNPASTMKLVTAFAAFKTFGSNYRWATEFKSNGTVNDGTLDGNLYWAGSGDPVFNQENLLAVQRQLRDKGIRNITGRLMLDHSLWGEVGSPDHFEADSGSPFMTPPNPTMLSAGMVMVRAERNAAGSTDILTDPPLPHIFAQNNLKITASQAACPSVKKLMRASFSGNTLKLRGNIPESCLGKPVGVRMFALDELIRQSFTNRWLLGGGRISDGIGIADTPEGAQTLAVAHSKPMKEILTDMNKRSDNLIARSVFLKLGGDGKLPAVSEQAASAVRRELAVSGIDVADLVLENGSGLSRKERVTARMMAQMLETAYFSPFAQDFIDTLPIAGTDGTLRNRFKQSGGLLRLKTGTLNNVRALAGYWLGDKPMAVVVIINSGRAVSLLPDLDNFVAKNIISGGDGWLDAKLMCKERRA
Details: read-out: IC50 PBP3; strain ATCC 49226; membrane preparation, 30 min drug then Bocillin FL
Report only the number, with the unit nM understood.

Asked: // fetch IC50 given entry CC1(C)[C@H](C(=O)O)N2C(=O)C[C@H]2S1(=O)=O
Given back: 27300

Asked: Give IC50 for the following molecule: CCO/N=C(\C(=O)N[C@@H]1C(=O)N2C(C(=O)[O-])=C(Sc3nc(-c4cc[n+](C)cc4)cs3)CS[C@H]12)c1nsc(N)n1
Given back: 2130

Asked: Consider the molecule CC1(C)S[C@@H]2[C@H](NC(=O)[C@H](C(=O)O)c3ccsc3)C(=O)N2[C@H]1C(=O)O . State its measured IC50.
Given back: 1640

###

Kindly state MIC for each of the entries shown.
system: N. gonorrhoeae ATCC 19424; experiment: MIC, CLSI broth microdilution; type: cell-based; settings: Neisseria gonorrhoeae, ATCC19424; strain ATCC 19424; read-out: MIC
# include the unit after the value

Asked: Answer with the recorded MIC for the molecule listed here: C=CC1=C(C(=O)O)N2C(=O)[C@@H](NC(=O)/C(=N\OCC(=O)O)c3csc(N)n3)[C@H]2SC1
Given back: 4 ng/mL

Asked: Given C[C@@H](O)[C@H]1C(=O)N2C(C(=O)O)=C(S[C@@H]3CN[C@H](CNS(N)(=O)=O)C3)[C@H](C)[C@H]12 , respond with its MIC.
Given back: 4 ng/mL

Asked: Consider the molecule Cn1c(N)c(NC(=O)NCCN)c[n+]1CC1=C(C(=O)O)N2C(=O)[C@@H](NC(=O)/C(=N\OC(C)(C)C(=O)[O-])c3nsc(N)n3)[C@H]2SC1 and give its recorded MIC.
Given back: 32 ng/mL

###

molecular target: PBP2 (Neisseria gonorrhoeae, UniProt P08149, A510V/A516G/A574V/F504L/H541N/I556V/I566V/K555Q/P552V); construct: endogenous in cells; host or cells: N. gonorrhoeae ATCC 49226, isolated membrane preparation; assay: biochemical; type: binding, Neisseria gonorrhoeae ATCC 49226; conditions: IC50 PBP2, strain ATCC 49226; membrane preparation, 30 min drug then Bocillin FL
Reported property: IC50

Asked: For the molecule NC(=O)[C@@H]1CC[C@@H]2CN1C(=O)N2OS(=O)(=O)O [AVI, avibactam] , report IC50.
Given back: > 965 µM

Asked: Give the reported IC50 for this molecule. CC1(C)S[C@@H]2[C@H](NC(=O)[C@H](C(=O)O)c3ccsc3)C(=O)N2[C@H]1C(=O)O [TIC, ticarcillin]
Given back: > 5.2 µM

Asked: Could you please provide reported IC50 for O=C(NC1CCNCC1)[C@@H]1CC[C@@H]2CN1C(=O)N2OS(=O)(=O)O [REL, relebactam] ? Thanks!
Given back: > 735 µM

Asked: Quote IC50 reported for CO[C@@]1(NC(=O)Cc2cccs2)C(=O)N2C(C(=O)O)=C(COC(N)=O)CS[C@@H]21 [FOX, cefoxitin] please.
Given back: > 4.68 µM

###

biological target: PBP1 (Neisseria gonorrhoeae, UniProt O05131, A375T/F666S); construct: endogenous in cells; host or cells: N. gonorrhoeae ATCC 49226, isolated membrane preparation; experiment: PBP-binding assay (Bocillin FL) in isolated membrane preparations; set-up: species or system Neisseria gonorrhoeae ATCC 49226; conditions: IC50 PBP1, strain ATCC 49226; membrane preparation, 30 min drug then Bocillin FL
For each entry below, report its IC50 value.

Asked: Fill in IC50 for record CCN1CCN(C(=O)N[C@@H](C(=O)N[C@@H]2C(=O)N3[C@@H]2SC(C)(C)[C@@H]3C(=O)O)c2ccccc2)C(=O)C1=O [PIP, piperacillin]
Given back: > 3.86 µM

Asked: For the molecule C=CC1=C(C(=O)O)N2C(=O)[C@@H](NC(=O)/C(=N\OCC(=O)O)c3csc(N)n3)[C@H]2SC1 [CFM, cefixime] , give its reported IC50.
Given back: > 4.41 µM

Asked: Give IC50 for the following molecule: C[C@@H](O)[C@H]1C(=O)N2C(C(=O)O)=C(S[C@@H]3CN[C@H](C(=O)N(C)C)C3)[C@H](C)[C@H]12 [MEM, meropenem]
Given back: 1.17 µM

Asked: Give recorded IC50. CC(C)(O/N=C(\C(=O)N[C@@H]1C(=O)N2C(C(=O)[O-])=C(C[n+]3ccccc3)CS[C@H]12)c1csc(N)n1)C(=O)O [CAZ, ceftazidime]
Given back: > 3.66 µM

Asked: Give a short answer stating reported IC50 for C[C@H]1[C@H](NC(=O)/C(=N\OC(C)(C)C(=O)O)c2csc(N)n2)C(=O)N1S(=O)(=O)O [ATM, aztreonam] .
Given back: > 4.59 µM

Asked: Output IC50 of CO/N=C(\C(=O)N[C@@H]1C(=O)N2C(C(=O)O)=C(COC(C)=O)CS[C@H]12)c1csc(N)n1 [CTX, cefotaxime]
Given back: > 4.39 µM

Asked: Give reported IC50 value for CO/N=C(\C(=O)N[C@@H]1C(=O)N2C(C(=O)O)=C(CSc3nc(=O)c(=O)[nH]n3C)CS[C@H]12)c1csc(N)n1 [CRO, ceftriaxone]
Given back: 3.43 µM

###

target: PBP1 (Neisseria gonorrhoeae, UniProt O05131); construct: endogenous in cells; host or cells: N. gonorrhoeae ATCC 19424, isolated membrane preparation; assay: PBP-binding assay (Bocillin FL) in isolated membrane preparations; settings: strain ATCC 19424; membrane preparation, 30 min drug then Bocillin FL; read-out: IC50 PBP1 (converted)
Reported property: IC50

Asked: Let me know recorded IC50 for O=C(NC1CCNCC1)[C@@H]1CC[C@@H]2CN1C(=O)N2OS(=O)(=O)O , thanks.
Given back: > 1470 µM

Asked: // fetch IC50 given entry CCO/N=C(\C(=O)N[C@@H]1C(=O)N2C(C(=O)[O-])=C(Sc3nc(-c4cc[n+](C)cc4)cs3)CS[C@H]12)c1nsc(N)n1
Given back: > 3.31 µM

Asked: Give IC50 for Cn1c(N)c(NC(=O)NCCN)c[n+]1CC1=C(C(=O)O)N2C(=O)[C@@H](NC(=O)/C(=N\OC(C)(C)C(=O)[O-])c3nsc(N)n3)[C@H]2SC1
Given back: > 3 µM

Asked: Name the recorded IC50 of the item C[C@H]1[C@H](NC(=O)/C(=N\OC(C)(C)C(=O)O)c2csc(N)n2)C(=O)N1S(=O)(=O)O in your answer.
Given back: > 4.59 µM

Asked: Quick one: give measured IC50 for CCN1CCN(C(=O)N[C@@H](C(=O)N[C@@H]2C(=O)N3[C@@H]2SC(C)(C)[C@@H]3C(=O)O)c2ccccc2)C(=O)C1=O
Given back: > 3.86 µM

Asked: Indicate the recorded IC50 value for this compound: CC1(C)S[C@@H]2[C@H](NC(=O)[C@H](C(=O)O)c3ccsc3)C(=O)N2[C@H]1C(=O)O
Given back: > 5.2 µM

Asked: Answer with reported IC50 of CC(C)(O/N=C(\C(=O)N[C@@H]1C(=O)N2C(C(=O)[O-])=C(C[n+]3ccccc3)CS[C@H]12)c1csc(N)n1)C(=O)O
Given back: > 3.66 µM

Asked: Please report the measured IC50 for NC(=O)[C@@H]1CC[C@@H]2CN1C(=O)N2OS(=O)(=O)O
Given back: > 1930 µM

Data origin: paper PMC10269775
